target: Mu-type opioid receptor (Homo sapiens, UniProt P35372); assay: Agonist activity at human Rluc8-tagged MOP expressed in HEK293 cells coexpressing eYFP-tagged beta-arrestin-2 assessed as beta-arrestin-2 recruitment incubated for 5 mins by luminometer analysis relative to control; type: functional, cell-based
Sequence (P35372 whole entry): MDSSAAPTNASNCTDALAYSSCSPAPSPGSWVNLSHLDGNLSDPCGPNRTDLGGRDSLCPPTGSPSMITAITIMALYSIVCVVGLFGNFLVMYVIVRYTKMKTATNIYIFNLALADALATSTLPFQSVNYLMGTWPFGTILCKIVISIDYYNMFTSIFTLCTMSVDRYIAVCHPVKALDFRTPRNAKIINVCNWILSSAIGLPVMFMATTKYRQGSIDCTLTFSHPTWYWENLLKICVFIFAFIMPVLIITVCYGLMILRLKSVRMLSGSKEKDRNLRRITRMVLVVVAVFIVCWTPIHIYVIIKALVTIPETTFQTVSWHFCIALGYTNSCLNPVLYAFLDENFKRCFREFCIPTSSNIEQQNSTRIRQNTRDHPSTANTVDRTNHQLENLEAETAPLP
Numbered stars: 1 amine (or outer) side, 2 acyl side, 3 side chain; on linkers, the order of the positions; unused ones are H or OH. Square brackets hold non-standard residues; d marks the D form. Peptide text beside a SMILES is read from it. * marks the point of attachment. Nva(5-(4-Bn-piperidin-1-yl)) = N[C@@H](CCCN1CCC(Cc2ccccc2)CC1)C(=O)O; X2 = O=C1[C@@H](N[*:1])Cc2ccccc2CN1CCCC(=O)[*:2]; X1 = O=C1[C@@H](N[*:1])Cc2ccccc2CN1CCC(=O)[*:2]; Tic(7-OH) = O=C(O)[C@@H]1Cc2ccc(O)cc2CN1; Dmt = Cc1cc(O)cc(C)c1C[C@H](N)C(=O)O; Nicotinoyl = O=C(c1cccnc1)*; dOrn = NCCC[C@@H](N)C(=O)O; dNMeA = CN[C@H](C)C(=O)O; βAla = NCCC(=O)O
Please provide measured Emax for the entries that follow.
Give bare numbers, in %.

Would you mind telling me what Emax value was observed for `Cc1cc(O)cc(C)c1C[C@H](N)C(=O)N[C@H](CCCNC(=N)N)C(=O)N[C@H]1Cc2c(ccc3ccccc23)CN(CC(=O)N[C@@H](CCCN2CCC(Cc3ccccc3)CC2)C(=O)N[C@@H](Cc2ccccc2)C(N)=O)C1=O` ?
22

Item: Cc1cc(O)cc(C)c1C[C@H](N)C(=O)N[C@H](CCCN)C(=O)N[C@H]1Cc2ccccc2CN(CCC(=O)N[C@@H](CCCN2CCC(Cc3ccccc3)CC2)C(=O)N[C@@H](Cc2ccccc2)C(N)=O)C1=O (H-[Dmt][dOrn][X1][Nva(5-(4-Bn-piperidin-1-yl))]F-NH2)
20

Item: N=C(N)NCCC[C@@H](NC(=O)[C@@H]1Cc2ccc(O)cc2CN1)C(=O)N[C@H]1Cc2ccccc2CN(CCC(=O)N[C@@H](CCCN2CCC(Cc3ccccc3)CC2)C(=O)N[C@@H](Cc2ccccc2)C(N)=O)C1=O (H-[Tic(7-OH)][dR][X1][Nva(5-(4-Bn-piperidin-1-yl))]F-NH2)
33

Would you mind listing Emax for each of the following compounds?
1. Cc1cc(O)cc(C)c1C[C@H](NC(=N)N)C(=O)N[C@H](CCCNC(=N)N)C(=O)N[C@H]1Cc2ccccc2CN(CCC(=O)N[C@@H](CCCN2CCC(Cc3ccccc3)CC2)C(=O)N[C@@H](Cc2ccccc2)C(N)=O)C1=O
2. Cc1cc(O)cc(C)c1C[C@H](N)C(=O)N(C)[C@H](C)C(=O)N[C@H]1Cc2ccccc2CN(CCC(=O)N[C@@H](CCCN2CCC(Cc3ccccc3)CC2)C(=O)N[C@@H](Cc2ccccc2)C(N)=O)C1=O (H-[Dmt][dNMeA][X1][Nva(5-(4-Bn-piperidin-1-yl))]F-NH2)

1. 15
2. 12

Would you mind listing Emax for each of the following compounds?
1. Cc1cc(O)cc(C)c1C[C@H](N)C(=O)N1CCC[C@@H]1C(=O)N[C@H]1Cc2ccccc2CN(CC(=O)N[C@@H](CCCN2CCC(Cc3ccccc3)CC2)C(=O)N[C@@H](Cc2ccccc2)C(N)=O)C1=O
2. Cc1cc(O)cc(C)c1C[C@H](N)C(=O)N[C@H](CCCCNC(=O)c1cccnc1)C(=O)N[C@H]1Cc2ccccc2CN(CCC(=O)N[C@@H](CCCN2CCC(Cc3ccccc3)CC2)C(=O)N[C@@H](Cc2ccccc2)C(N)=O)C1=O (H-[Dmt][dK](Nicotinoyl)[X1][Nva(5-(4-Bn-piperidin-1-yl))]F-NH2)
3. Cc1cc(O)cc(C)c1C[C@H](N)C(=O)N[C@H](CCCNC(=N)N)C(=O)N[C@H]1Cc2ccccc2CN(CC(=O)N[C@@H](CCCN2CCC(Cc3ccccc3)CC2)C(=O)N[C@@H](Cc2ccccc2)C(N)=O)C1=O
4. Cc1cc(O)cc(C)c1C[C@H](N)C(=O)N[C@H](CCCNC(=N)N)C(=O)N[C@H]1Cc2ccccc2CN(CCC(=O)N[C@@H](CCCN2CCC(Cc3ccccc3)CC2)C(=O)N[C@@H](CC(C)C)C(N)=O)C1=O (H-[Dmt][dR][X1][Nva(5-(4-Bn-piperidin-1-yl))]L-NH2)
5. Cc1cc(O)cc(C)c1C[C@H](N)C(=O)N(C)[C@H](C)C(=O)N[C@H]1Cc2c(ccc3ccccc23)CN(CCC(=O)N[C@@H](CCCN2CCC(Cc3ccccc3)CC2)C(=O)N[C@@H](Cc2ccccc2)C(N)=O)C1=O
6. Cc1cc(O)cc(C)c1C[C@H](N)C(=O)N[C@H](CCCNC(=N)N)C(=O)N[C@H]1Cc2ccccc2CN(CCC(=O)N[C@@H](CCCN2CCC(Cc3ccccc3)CC2)C(=O)N[C@@H](Cc2ccccc2)C(=O)NCCC(N)=O)C1=O (H-[Dmt][dR][X1][Nva(5-(4-Bn-piperidin-1-yl))]F[βAla]-NH2)
7. Cc1cc(O)cc(C)c1C[C@H](N)C(=O)N[C@H](CCCNC(=N)N)C(=O)N[C@H]1Cc2c(ccc3ccccc23)CN(CC(=O)N[C@@H](CCCN2CCC(Cc3ccccc3)CC2)C(=O)N[C@H](C(N)=O)C(C)C)C1=O
8. Cc1cc(O)cc(C)c1C[C@H](N)C(=O)N[C@H](CCCNC(=N)N)C(=O)N[C@H]1Cc2ccccc2CN(CCCC(=O)N[C@@H](CCCN2CCC(Cc3ccccc3)CC2)C(=O)N[C@@H](Cc2c[nH]c3ccccc23)C(N)=O)C1=O (H-[Dmt][dR][X2][Nva(5-(4-Bn-piperidin-1-yl))]W-NH2)

1: 27; 2: 16; 3: 18; 4: 38; 5: 24; 6: 31; 7: 22; 8: 30

Would you mind telling me what Emax value was observed for Cc1cc(O)cc(C)c1C[C@H](N)C(=O)N[C@H](CCCNC(=N)N)C(=O)N[C@H]1Cc2ccccc2CN(CCCC(=O)N[C@@H](CCCN2CCC(Cc3ccccc3)CC2)C(=O)N[C@@H](Cc2ccccc2)C(N)=O)C1=O (H-[Dmt][dR][X2][Nva(5-(4-Bn-piperidin-1-yl))]F-NH2) ?
31

Attribution: ChEMBL document CHEMBL5506024
